- Target or system: ASIC1a (Homo sapiens, UniProt P78348)
- Sequence (P78348 whole entry, species assumed): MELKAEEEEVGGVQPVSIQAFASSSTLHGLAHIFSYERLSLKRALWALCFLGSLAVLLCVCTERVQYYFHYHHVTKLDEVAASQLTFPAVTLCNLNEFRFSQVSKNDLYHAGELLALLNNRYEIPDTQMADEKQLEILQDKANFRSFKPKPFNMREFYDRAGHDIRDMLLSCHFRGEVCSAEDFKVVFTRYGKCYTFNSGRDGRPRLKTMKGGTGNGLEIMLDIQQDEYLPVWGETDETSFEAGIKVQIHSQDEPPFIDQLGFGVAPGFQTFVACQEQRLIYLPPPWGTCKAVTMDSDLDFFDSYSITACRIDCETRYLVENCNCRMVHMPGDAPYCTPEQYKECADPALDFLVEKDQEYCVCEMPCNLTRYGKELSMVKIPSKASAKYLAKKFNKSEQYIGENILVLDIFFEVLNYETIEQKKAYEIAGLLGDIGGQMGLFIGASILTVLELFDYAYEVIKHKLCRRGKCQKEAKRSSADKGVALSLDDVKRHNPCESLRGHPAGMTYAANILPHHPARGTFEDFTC
- Assay procedure: Calcium imaging of MES-induced calcium response (FlexStation, "Flex")
- Assay type: cell-based
- Design: host or cells: HEK293
- Condition context: 40 μM, ASIC1a expressing HEK293 cells; read-out: % inh. at 40 μM (Flex)

{"Mol": "CCN(CC)Cc1cc(-c2cc(F)ccc2OC)cc2c1NC(=O)/C2=N/O", "Target or system": "ASIC1a (Homo sapiens, UniProt P78348)", "inhibition at 40 µM": "< 25%"}
{"Mol": "CCOC(=O)Nc1ccc(-c2cc(F)ccc2OC)cc1CN(CC)CC", "Target or system": "ASIC1a (Homo sapiens, UniProt P78348)", "inhibition at 40 µM": "< 25%"}
{"Mol": "CCN(CC)Cc1cc(-c2cc(F)ccc2OC)ccc1NC(=O)N(C)C", "Target or system": "ASIC1a (Homo sapiens, UniProt P78348)", "inhibition at 40 µM": "< 25%"}
{"Mol": "CCN1CCc2c(-c3cccc(C)c3C)cc3c(c2C1)NC(=O)/C3=N/O", "Target or system": "ASIC1a (Homo sapiens, UniProt P78348)", "inhibition at 40 µM": "> 50%"}
{"Mol": "COc1ccc(F)cc1-c1ccc(N)c(CO)c1", "Target or system": "ASIC1a (Homo sapiens, UniProt P78348)", "inhibition at 40 µM": "< 25%"}
{"Mol": "CCN(CC)Cc1cc(-c2cc(F)ccc2OC)ccc1NC(=O)N1CCOCC1", "Target or system": "ASIC1a (Homo sapiens, UniProt P78348)", "inhibition at 40 µM": "< 25%"}
{"Mol": "COc1ccc(F)cc1-c1ccc2c(c1)COC(=O)N2", "Target or system": "ASIC1a (Homo sapiens, UniProt P78348)", "inhibition at 40 µM": "25 to 45%"}
